- SYSTEM_UNDER_TEST: T1, Pig Semaphorin3A-Sema Domain, TPP-20176 (pig, UniProt Q63548 21-569 (rat entry))
- T1 construct: produced inhouse
- T1 chain: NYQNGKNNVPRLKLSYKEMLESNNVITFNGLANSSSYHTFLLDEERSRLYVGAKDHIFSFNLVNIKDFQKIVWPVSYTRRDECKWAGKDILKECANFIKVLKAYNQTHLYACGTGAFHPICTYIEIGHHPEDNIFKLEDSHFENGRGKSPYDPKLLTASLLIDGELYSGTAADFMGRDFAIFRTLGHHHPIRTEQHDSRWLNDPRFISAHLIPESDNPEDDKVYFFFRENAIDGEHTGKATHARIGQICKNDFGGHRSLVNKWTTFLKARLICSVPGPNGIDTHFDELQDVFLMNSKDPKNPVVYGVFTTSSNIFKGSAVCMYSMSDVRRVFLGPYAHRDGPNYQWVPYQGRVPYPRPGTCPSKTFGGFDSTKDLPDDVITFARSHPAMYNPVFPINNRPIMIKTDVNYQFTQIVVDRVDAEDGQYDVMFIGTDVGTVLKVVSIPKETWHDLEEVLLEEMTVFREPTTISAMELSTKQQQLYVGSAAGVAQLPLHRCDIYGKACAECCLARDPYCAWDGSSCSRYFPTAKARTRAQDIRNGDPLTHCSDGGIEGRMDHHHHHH
- TEST_NAME: SPR, captured antibody, Sema3A domain analyte
PARAMETER_MEASURED: Kd (nM)
Quick reminder: number only, in nM, skip the unit.

TPP-30788 (antibody, human IgG1, kappa, V domains shown, prior art, WO 2020/225400; also called BI clone I; Böhringer (BI) Clone I) VH: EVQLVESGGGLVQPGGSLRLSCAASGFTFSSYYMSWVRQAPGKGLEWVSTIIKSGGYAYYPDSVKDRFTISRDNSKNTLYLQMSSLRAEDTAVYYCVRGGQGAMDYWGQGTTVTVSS VL: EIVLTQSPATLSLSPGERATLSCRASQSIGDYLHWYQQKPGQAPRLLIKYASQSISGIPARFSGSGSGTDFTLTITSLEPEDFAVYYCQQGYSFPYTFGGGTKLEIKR: 0.038
TPP-15374 (antibody, human IgG1, lambda, V domains shown, human IgG1; also called IgG1, hit from panning; parental mAb) VH: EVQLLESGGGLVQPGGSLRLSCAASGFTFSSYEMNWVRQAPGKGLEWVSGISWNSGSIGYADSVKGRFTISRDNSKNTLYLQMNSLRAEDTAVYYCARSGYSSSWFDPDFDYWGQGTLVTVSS VL: QSVLTQPPSASGTPGQRVTISCTGSSSNIGAGYDVHWYQQLPGTAPKLLIYGNSNRPSGVPDRFSGSKSGTSASLAISGLRSEDEADYYCSSYAGSNPYVVFGGGTKLTVLG: 7.2
TPP-30791 (antibody, human IgG1, kappa, V domains shown, prior art, WO 2020/225400; also called BI clone IV; Böhringer (BI) Clone IV) VH: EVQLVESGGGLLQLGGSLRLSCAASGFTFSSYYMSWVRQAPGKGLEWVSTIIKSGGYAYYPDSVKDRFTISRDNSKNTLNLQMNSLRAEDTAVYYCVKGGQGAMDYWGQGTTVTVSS VL: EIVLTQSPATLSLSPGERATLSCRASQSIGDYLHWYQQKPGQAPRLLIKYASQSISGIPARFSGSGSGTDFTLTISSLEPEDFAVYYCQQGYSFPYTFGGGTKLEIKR: 0.029

Recorded Kd for TPP-17755 (antibody, human IgG1, lambda, V domains shown, also called Samsung; Samsung Prior Art F11) VH: EVQLLESGGGLVQTGGSLRLSCAASGFTFSDYAMSWVRQAPGKGLEWVSWIYYDSGSKYYADSVKGRFTISRDNSKNTLYLQMNSLRAEDTAVYYCAKLNGDFDYWGQGTLVTVSS VL: QSVLTQPPSASGTPGQRVTISCSGSSSNIGNNDVSWYQQLPGTAPKLLIYADSHRPSGVPDRFSGSKSGTSASLAISGLRSEDEADYYCGAWDSSLSGYVFGGGTKLTVLG , please?
4

Recorded Kd for TPP-30789 (antibody, human IgG1, kappa, V domains shown, prior art, WO 2020/225400; also called BI clone II; Böhringer (BI) Clone II) VH: EVQLVESGGGLVQPGGSLRLSCAASGFPFSSYYMSWVRQAPGKGLEWVSTIIKSGGYAYYPDSVKDRFTISRDNSKNTLYLQMSSLRAEDTAVYYCVRGGQGAMDYWGQGTTVTVSS VL: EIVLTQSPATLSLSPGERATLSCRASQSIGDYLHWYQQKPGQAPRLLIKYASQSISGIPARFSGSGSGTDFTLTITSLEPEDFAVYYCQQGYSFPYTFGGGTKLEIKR , please?
0.039

Recorded Kd for TPP-30790 (antibody, human IgG1, kappa, V domains shown, prior art, WO 2020/225400; also called BI clone III; Böhringer (BI) Clone III) VH: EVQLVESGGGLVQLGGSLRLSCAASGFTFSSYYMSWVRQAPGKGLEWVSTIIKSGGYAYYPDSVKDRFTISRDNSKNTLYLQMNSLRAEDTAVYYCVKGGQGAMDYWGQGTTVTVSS VL: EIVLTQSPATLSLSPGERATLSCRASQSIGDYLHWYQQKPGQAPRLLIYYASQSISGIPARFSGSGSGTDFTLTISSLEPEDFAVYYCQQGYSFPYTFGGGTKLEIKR , please?
0.036
